# credit: patent US12478624B2

molecular target: CBP Bromodomain (Homo sapiens, UniProt Q92793); assay: Assay 3: CBP bromodomain binding assay (TR-FRET)
Sequence (Q92793 1085-1192 limits assumed): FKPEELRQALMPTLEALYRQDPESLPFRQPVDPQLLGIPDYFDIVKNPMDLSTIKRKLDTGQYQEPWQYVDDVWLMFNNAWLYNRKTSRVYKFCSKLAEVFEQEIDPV
pEC50: −log10 of the molar value.
Here the recorded pEC50 is given for each entry.

Past entries and their recorded results:
{"columns": ["compound", "experimental readout", "result"],
 "data": [
  ["CC(=O)N1C[C@H](c2nc(Nc3cc(C)nc(F)c3)cc(-c3cnccn3)n2)CC[C@@H]1C [Compound 00149]", "pEC50", "> 6.70"],
  ["CNC(=O)c1cc(F)cc(Nc2cc(-c3cccnc3)nc([C@@H]3CC[C@H](C)N(C(C)=O)C3)n2)c1 [Compound 00041]", "pEC50", "> 6.70"],
  ["CC(=O)N1C[C@H](c2nc(Nc3cc(F)cc(-c4cnn(C)c4)c3)cc(-c3cnccn3)n2)CC[C@@H]1C [Compound 00066]", "pEC50", "5.00 to 6.00"]
]}

Could you now look at the following compound, please?
## Task # query: pEC50 of entry CC(=O)N1C[C@H](c2nc(Nc3cccc(-c4cn(C)nn4)c3)cc(-c3cccnc3)n2)CC[C@@H]1C [Compound 00053]
## Result 5.00 to 6.00

----------
biological target: CBP Bromodomain (Homo sapiens); construct: purchased Cayman chemicals 600850; test: Assay 3: CBP bromodomain binding assay (TR-FRET)
pEC50: −log10 of the molar value.
experimental readout: pEC50

Past entries and their recorded results:
{"columns": ["compound", "result"],
 "data": [
  ["CC(=O)N1C[C@H](c2nc(Nc3cccc(-c4cnn(C)c4)c3)cc(-c3cnccn3)n2)CC[C@@H]1C", "> 6.70"],
  ["CC(=O)N1C[C@H](c2nc(Nc3ccccc3)cc(-n3cnc(C)c3)n2)CC[C@@H]1C", "5.00 to 6.00"],
  ["CC(=O)N1C[C@H](c2nc(Nc3cccc(-c4cn(C)nn4)c3)cc(-c3cncc4c3ccn4C)n2)CC[C@@H]1C", "> 6.70"],
  ["CC(=O)N1C[C@H](c2nc(Nc3ccccc3)cc(-c3cncnc3)n2)CC[C@@H]1C (racemic)", "6.00 to 6.70"],
  ["CC(=O)N1C[C@H](c2nc(Nc3cncc(C)c3)cc(-c3cccnc3)n2)CC[C@@H]1C", "> 6.70"],
  ["CC(=O)N1C[C@H](c2nc(Nc3cccc(C(F)F)c3)cc(-c3cccnc3)n2)CC[C@@H]1C", "6.00 to 6.70"]
]}

Could you now look at the following compound, please?
## Task # query: pEC50 of entry CC(=O)N1C[C@H](c2nc(Nc3ccccc3)cc(-c3cncc4[nH]ccc34)n2)CC[C@@H]1C (racemic)
## Result > 6.70

----------
Molecular target: ATAD2A (Homo sapiens, UniProt Q6PL18)
Construct: T7 phage strains displaying bromodomains were grown in parallel
Sequence (Q6PL18 980-1092 limits assumed): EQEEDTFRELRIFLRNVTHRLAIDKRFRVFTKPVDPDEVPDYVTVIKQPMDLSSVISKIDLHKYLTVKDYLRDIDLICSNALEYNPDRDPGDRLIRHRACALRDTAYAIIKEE
Experiment: BromoKdMAX (BROMOscan, DiscoverX)
experimental readout: Kd

## Task # query: Kd of entry COc1cncc(-c2cc(Nc3cccc(F)c3)nc([C@@H]3CC[C@H](C)N(C(C)=O)C3)n2)c1 [Compound 00004]
## Result > 10 µM
